Value source: ChEMBL document CHEMBL3785039

# testDescription: Cmax in healthy subject (7 subjects) at 50 mg, po administered as single dose
# Format: ADME, organism-based
# Design: dose 50 mg, route oral
# conditions: human, in vivo
outcomeMeasure: Cmax (ng/mL)
Answer with a number only, understood to be in ng/mL.

*Q* Report Cmax for O=C([O-])Cc1ccccc1Nc1c(Cl)cccc1Cl.[Na+] [DICLOFENAC SODIUM] please.
*A* 2000

###

# testDescription: Slow disposition half life in healthy subject (7 subjects) at 50 mg, iv by three compartment open model
# Type: ADME, organism-based
# conditions: human, in vivo, read-out: alphat1/2 (converted)
outcomeMeasure: half-life (min)
Reply with just the number (in min).

*Q* Recorded half-life of O=C([O-])Cc1ccccc1Nc1c(Cl)cccc1Cl.[Na+] [DICLOFENAC SODIUM] , please.
*A* 15.6

###

# testDescription: Plasma concentration in healthy subject (7 subjects) at 50 mg, po administered as single dose measured after 2.5 hrs by gas chromatography
# Type: ADME, organism-based
# conditions: human
outcomeMeasure: concentration at 2.5 h (ng/mL)
Reply with just the number (in ng/mL).

*Q* Which measured concentration at 2.5 h value corresponds to O=C([O-])Cc1ccccc1Nc1c(Cl)cccc1Cl.[Na+] [DICLOFENAC SODIUM] ?
*A* 710

###

# testDescription: Plasma clearance in healthy subject (7 subjects) at 50 mg, iv by three compartment open model
# Type: ADME, organism-based
# conditions: human
outcomeMeasure: clearance (mL/min)
Only the number, expressed in mL/min, is required.

*Q* Which value of clearance has been reported for O=C([O-])Cc1ccccc1Nc1c(Cl)cccc1Cl.[Na+] [DICLOFENAC SODIUM] in the records?
*A* 263

###

# testDescription: Plasma concentration in healthy subject (7 subjects) at 50 mg, po administered as single dose measured after 6.5 hrs by gas chromatography
# Format: ADME, organism-based
# conditions: human
outcomeMeasure: concentration at 6.5 h (ng/mL)
A number alone suffices; assume ng/mL.

*Q* Which concentration at 6.5 h reading was recorded for the molecule O=C([O-])Cc1ccccc1Nc1c(Cl)cccc1Cl.[Na+] [DICLOFENAC SODIUM] ?
*A* 25

###

# testDescription: Plasma concentration in healthy subject (7 subjects) at 50 mg, po administered as single dose measured after 1 hr by gas chromatography
# Assay type: ADME, organism-based
# conditions: human
outcomeMeasure: concentration at 1 h (ng/mL)
Write the value in ng/mL as a bare number.

*Q* Requested read-out: concentration at 1 h. Entry: O=C([O-])Cc1ccccc1Nc1c(Cl)cccc1Cl.[Na+] [DICLOFENAC SODIUM]
*A* 200

###

# testDescription: Total volume of distribution in healthy subject (7 subjects) at 50 mg, iv by three compartment open model
# Assay type: ADME, organism-based
# conditions: human, in vivo
outcomeMeasure: Vd (L/kg)
Write the number in L/kg without appending the unit.

*Q* State the recorded Vd for this entry: O=C([O-])Cc1ccccc1Nc1c(Cl)cccc1Cl.[Na+] [DICLOFENAC SODIUM]
*A* 0.172

###

# testDescription: Plasma concentration in healthy subject (7 subjects) at 50 mg, po administered as single dose measured after 8 hrs by gas chromatography
# Format: ADME, organism-based
# conditions: human
outcomeMeasure: concentration at 8 h (ng/mL)
Field: numeric (ng/mL). Do not append units.

*Q* Form field: reported concentration at 8 h of O=C([O-])Cc1ccccc1Nc1c(Cl)cccc1Cl.[Na+] [DICLOFENAC SODIUM]
*A* 11

###

# testDescription: Plasma concentration in healthy subject (7 subjects) at 50 mg, po administered as single dose measured after 6 hrs by gas chromatography
# Format: ADME, organism-based
# conditions: human
outcomeMeasure: concentration at 6 h (ng/mL)
All answers are understood in ng/mL, so give the number only.

*Q* Endpoint output: concentration at 6 h of O=C([O-])Cc1ccccc1Nc1c(Cl)cccc1Cl.[Na+] [DICLOFENAC SODIUM] . Value?
*A* 35

###

# testDescription: Plasma concentration in healthy subject (7 subjects) at 50 mg, po administered as single dose measured after 3.5 hrs by gas chromatography
# Assay type: ADME, organism-based
# conditions: human
outcomeMeasure: concentration at 3.5 h (ng/mL)
Numbers only; they are read as ng/mL.

*Q* Param item = O=C([O-])Cc1ccccc1Nc1c(Cl)cccc1Cl.[Na+] [DICLOFENAC SODIUM] ; retrieve measured concentration at 3.5 h.
*A* 240

###

# testDescription: Plasma concentration in healthy subject (7 subjects) at 50 mg, po administered as single dose measured after 3 hrs by gas chromatography
# Format: ADME, organism-based
# conditions: human
outcomeMeasure: concentration at 3 h
Please state the value followed by its unit.

*Q* What does the data say about its concentration at 3 h? Entry: O=C([O-])Cc1ccccc1Nc1c(Cl)cccc1Cl.[Na+] [DICLOFENAC SODIUM]
*A* 690 ng/mL

###

# testDescription: AUC (0 to infinity) in healthy subject (7 subjects) at 50 mg, iv by three compartment open model
# Assay type: ADME, organism-based
# Set-up: dose 50 mg, route intravenous, time infinity
# conditions: human, in vivo
outcomeMeasure: AUC(0-inf) (ng·h/mL)
All answers are understood in ng·h/mL, so give the number only.

*Q* Please look up its AUC(0-inf): O=C([O-])Cc1ccccc1Nc1c(Cl)cccc1Cl.[Na+] [DICLOFENAC SODIUM]
*A* 3290

###

# testDescription: Plasma concentration in healthy subject (7 subjects) at 50 mg, po administered as single dose measured after 5 hrs by gas chromatography
# Assay type: ADME, organism-based
# conditions: human
outcomeMeasure: concentration at 5 h (µg/mL)
Unit µg/mL implied. Number only.

*Q* Dear colleague, I am looking for the recorded concentration at 5 h of the following compound: O=C([O-])Cc1ccccc1Nc1c(Cl)cccc1Cl.[Na+] [DICLOFENAC SODIUM]
*A* 0.095

###

# testDescription: Terminal half life in healthy subject (7 subjects) at 50 mg, po administered as single dose
# Assay type: ADME, organism-based
# conditions: human, in vivo, read-out: beta t1/2 (converted)
outcomeMeasure: half-life

*Q* Find the recorded half-life belonging to O=C([O-])Cc1ccccc1Nc1c(Cl)cccc1Cl.[Na+] [DICLOFENAC SODIUM] and report it.
*A* 1.8 h

###

# testDescription: Oral bioavailability in healthy subject (7 subjects) at 50 mg administered as single dose
# Type: ADME, organism-based
# conditions: human, in vivo
outcomeMeasure: bioavailability (%)
Answer with a number only, understood to be in %.

*Q* Give its bioavailability value. Item: O=C([O-])Cc1ccccc1Nc1c(Cl)cccc1Cl.[Na+] [DICLOFENAC SODIUM]
*A* 54

###

# testDescription: Plasma concentration in healthy subject (7 subjects) at 50 mg, po administered as single dose measured after 1.5 hrs by gas chromatography
# Assay type: ADME, organism-based
# conditions: human
outcomeMeasure: concentration at 1.5 h (ng/mL)
Write the answer as a number in ng/mL, unit excluded.

*Q* Using the record for O=C([O-])Cc1ccccc1Nc1c(Cl)cccc1Cl.[Na+] [DICLOFENAC SODIUM] , report its concentration at 1.5 h.
*A* 100

###

# testDescription: Cmax in healthy subject (7 subjects) at 50 mg, iv measured after 5 mins
# Assay type: ADME, organism-based
# Design: dose 50 mg, route intravenous
# conditions: human, in vivo
outcomeMeasure: Cmax (ng/mL)
Numbers only; they are read as ng/mL.

*Q* For the molecule O=C([O-])Cc1ccccc1Nc1c(Cl)cccc1Cl.[Na+] [DICLOFENAC SODIUM] , what Cmax is on record?
*A* 7800

###

# testDescription: Elimination rate constant in healthy subject (7 subjects) at 50 mg, iv by three compartment open model
# Format: ADME, organism-based
# conditions: human, in vivo
outcomeMeasure: k el
Include the unit right after the number.

*Q* k el for O=C([O-])Cc1ccccc1Nc1c(Cl)cccc1Cl.[Na+] [DICLOFENAC SODIUM] ?
*A* 0.00236 s⁻¹
